Entry source: the supplement of paper PMC6555819

Tested on: VDR:RXRa (NR concentration 270 nM, RXRa partner concentration 90 nM)
test: PBM binding z-score (relative to random genomic background probes); higher = stronger binding; sequences stand for … in GC…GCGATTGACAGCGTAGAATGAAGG
For each of the sequences below, state its PBM binding z-score.
One number for each entry.

- AATACAGGGTCACTAGGCCCGAGTAGGTACGAAT: 3.96
- CTATGTAGGTTAAGGGGGTCCTTCAGTTTGAAAG: 3.98

Per the records, this sequence ( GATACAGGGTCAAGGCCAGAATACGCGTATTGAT ) has PBM binding z-score equal to 4.05

----------
Would you mind telling me the reported PBM binding z-score of each entry?
System: RARa homodimer (NR concentration 270 nM)
test: PBM binding z-score (relative to random genomic background probes); higher = stronger binding; sequences stand for … in GC…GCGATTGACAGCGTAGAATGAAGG
Numbers only.

Fill in PBM binding z-score for each of the 2 sequences listed.
1. CGAACTAGGTCAGAACAGGACAGTTAAGGATGAT
2. TGTCAGAGTTCAAAGGTAACGTAAGTATCCACAC

1. 0.874
2. -0.164

Need PBM binding z-score for each of these sequences.
1. ATACGTAGGTTAGGGTCATTCAGAAAGTAGGGAA
2. CCGAGTAGGTTACGAGGGGGCATTTAGTGCGAAT
3. GCTGCTAGGTCAACTGAGGGTCAGCTAAAGCTCG
4. TCGAGTAGGTTACGGGGGCATTGAGGGATGAAGA
5. CGTCCAAGGTCAAGGGCAGTGAAAGAGACTCGAA

1.86
0.176
0.262
0.325
1.15

For every listed record, write down its PBM binding z-score.
1. AGTCAAAGTTCAGGACGAGGTAATGTAAAGCACG
2. CTATGTAGGTTAAGGGGGTCATACAGTTTGAAAG
3. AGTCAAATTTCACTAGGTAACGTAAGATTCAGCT
4. CTATGTAGGTTAAGGGGGTTATTCAGTTTGAAAG
5. GATCCAGGGTCAGCTAGAGGCCAGAGTATGGAAA
6. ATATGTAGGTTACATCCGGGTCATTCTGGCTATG
7. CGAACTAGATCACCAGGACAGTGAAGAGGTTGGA
8. ATATGTAAGTTAGGGTCATTCAGAAAGTAGGGAA

0.661
2.55
1.44
1.62
-0.417
0.96
-0.196
1.77

For each entry beneath this line, provide reported PBM binding z-score.
1. TCTAGTTGGTCGCGGAGGTCACACACGACGGGTA
2. CGTCCAAGGTCAAAGGTCACTGAAGAGATGACGG
3. GCATATAGGTAATTCAAGGTGAAAGTCCGATTGT
4. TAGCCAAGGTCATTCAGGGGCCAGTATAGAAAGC
5. CGAACTAGGTCAAAGGACCGTGAAAGGCGACGTA
6. ATCGAAAGGTCGAAGGTGAGTACACCCACCCGAA

1: 1.29; 2: 3.47; 3: 0.378; 4: 0.389; 5: -0.512; 6: 1.18

----------
Test system: THRa homodimer (NR concentration 90 nM)
test: PBM binding z-score (relative to random genomic background probes); higher = stronger binding; sequences stand for … in GC…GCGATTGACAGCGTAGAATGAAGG
quantity measured: PBM binding z-score
Numbers only.

• TAGCCTAGGTCATTGGGCTAGTATAGTACGCATC = 0.251

// for each sequence in input: emit PBM binding z-score
1. TATACTGGGTCAAAGGCCAGAGTACGAATGTCGA
2. CGAACTAGGTCACCTGGACAGTGAAGAGGTTGGA

1. 0.212
2. 1.2
